- Tested on: CCRF-CEM
- Assay: NCI tumour cell line growth inhibition, 48 h
Active and inactive are the calls of the source. No stated cut-off is given here; in the data, active = GI50 up to about 1.1 µM and inactive = higher.
Your reply should match one of these outcome classes. 1 (yes) (active), 0 (no) (inactive)

Would you mind telling me which call this test gave CN(C)CCNC(=O)c1cc(NC(=O)c2cc(NC(=O)CC/C=C3/[C@@H]4CC[C@H]3N=N4)cn2C)cn1C ?
0 (no)

Would you mind telling me which call this test gave Cc1cc2c(=O)c3ccc(Cl)cc3[nH]c2c(C(N)=O)c1C ?
0 (no)

Would you mind telling me which call this test gave Nc1ncnc2c1ncn2C1OC(CSC(F)F)C(O)C1O (centres undefined) ?
0 (no)

Would you mind telling me which call this test gave COC1=CC(=O)C2C(C1=O)[C@@H]1c3ccccc3OC(C)(C)[C@H]21 (some centres undefined) ?
0 (no)

Would you mind telling me which call this test gave Cc1c(C#N)c2nnn(-c3ccc([N+](=O)[O-])cc3)c(=O)n2c1-c1ccccc1 ?
0 (no)

Would you mind telling me which call this test gave CNC(=O)CC1NC(=O)c2csc(n2)-c2ccc(-c3nc(C4=NC(C(=O)N5CCCC5C(N)=O)CO4)cs3)nc2-c2csc(n2)-c2csc(n2)C(C(C)C)NC(=O)CNC(=O)c2csc(n2)C(C(C)C)NC(=O)c2nc1sc2C (centres undefined) ?
1 (yes)

Would you mind telling me which call this test gave CC(N)C(=O)c1ccc(O)cc1 (centres undefined) ?
0 (no)

Would you mind telling me which call this test gave COc1ccc(CNc2cnc3cc(N)ccc3n2)cc1OC ?
0 (no)

Would you mind telling me which call this test gave COc1cc(/C=C/C(=O)CC(=O)/C=C/c2cc(C)c(O)c(OC)c2)cc(C)c1O ?
0 (no)

Would you mind telling me which call this test gave CC(=O)OC1C[C@H]2C(OC(=O)c3ccccc3)C3C4(OC(C)=O)COC4C[C@H](OC(C)=O)[C@@]3(C)C(OC(C)=O)[C@H](OC(C)=O)C(=C1C)C2(C)C (some centres undefined) ?
0 (no)

Would you mind telling me which call this test gave Cc1ccc(O)c(/N=N/c2ccc(S(=O)(=O)O)cc2)n1 ?
0 (no)

Would you mind telling me which call this test gave COC(=O)/C(C#N)=C(\N)C(Cl)(Cl)Cl ?
1 (yes)

Would you mind telling me which call this test gave C[C@]12CC[C@H]3[C@@H](CC[C@]4(O)C[C@@H](O)CC[C@]34C=O)[C@@]1(O)CC[C@@H]2C1=CC(=O)OC1 ?
1 (yes)

Would you mind telling me which call this test gave O=C(c1ccsc1)c1nccc2c1cnc1ccccc12 ?
0 (no)

Would you mind telling me which call this test gave CCOP(=O)(OCC)/C(F)=C/c1ccccc1 ?
0 (no)

Would you mind telling me which call this test gave O=C1CN(C(=O)C2CCCN2C(=O)C2CCCN2)C(=O)CN1 (centres undefined) ?
0 (no)

Would you mind telling me which call this test gave CCCCCCCCCCCCCCCC(=O)OCC(O)C1OC(=O)C(O)=C1O (centres undefined) ?
0 (no)

Would you mind telling me which call this test gave N=c1oc2c(O)c(O)ccc2cc1C(N)=O ?
0 (no)

Would you mind telling me which call this test gave COc1ccc2c3c1O[C@H]1C[C@@H](O)C=C[C@@]31CCN(C)C2 ?
0 (no)

Would you mind telling me which call this test gave CCOC(=O)C(=NN(C)c1ncccc1N)C(=O)OCC ?
0 (no)

Would you mind telling me which call this test gave Cc1ccc(C)n2c1nc1ccccc12 ?
0 (no)

Would you mind telling me which call this test gave C/C=C(\C)C(=O)N1c2ccccc2CC1c1c(C)[nH]c2ccccc12 (centres undefined) ?
0 (no)

Would you mind telling me which call this test gave Cc1c2ccncc2c(C)c2c1[nH]c1ccc(Oc3ccccc3)cc12 ?
0 (no)

Would you mind telling me which call this test gave CCOC(=O)C1C(=O)C(=O)N2CCc3c([nH]c4ccccc34)C12 (centres undefined) ?
0 (no)

Would you mind telling me which call this test gave CC(C)N(C(=O)C12C3C4C1C1C4(C#N)C3C12C(=O)O)C(C)C (centres undefined) ?
0 (no)

Would you mind telling me which call this test gave COc1ccc(NCc2cccc3c(=O)c4ccc(Cl)cc4oc23)cc1 ?
0 (no)

Would you mind telling me which call this test gave CC1=CC(=O)/C(=C/n2c(=S)[nH]c3cc(C)ccc32)C(=O)O1 ?
0 (no)

Would you mind telling me which call this test gave O=[N+]([O-])c1cccc2nc3ccccc3c(NCCc3cccc[n+]3[O-])c12 ?
1 (yes)

Would you mind telling me which call this test gave O=C(C1OC1c1cccc([N+](=O)[O-])c1)C12CC3CC(CC(C3)C1)C2 (centres undefined) ?
0 (no)

---

- Test system: DLD-1
- Assay: NCI tumour cell line growth inhibition, 48 h
Activity calls are given as the source filed them. Cut-off read from the data, not from the text of the source: active = GI50 up to about 1.1 µM and inactive = higher.
Would you mind telling me the reported GI50 of each entry?

Item CN(C)c1nc(N(C)C)nc(N(C)CN(C)c2nc(N(C)C)nc(N(C)C)n2)n1 has what recorded GI50?
> 100 µM (inactive)

Item [O-][S+]1c2ccccc2N=C(c2ccc3ccccc3c2)CC1c1ccccc1 (stereo unspecified) has what recorded GI50?
19 µM (inactive)

Item COC(=O)c1c(-c2ccccc2)sc(-c2cccc3ccccc23)c1C(=O)OC has what recorded GI50?
18 µM (inactive)

Item COC(=O)/C(C#N)=C(\N)C(Cl)(Cl)Cl has what recorded GI50?
1.17 µM (inactive)

Item O=C(CC1C(=O)Nc2ccccc2S1(=O)=O)Nc1cccc(Cl)c1 (stereo unspecified) has what recorded GI50?
17.5 µM (inactive)

Item C[C@]12CC[C@H](O)CC1=CC[C@@H]1C2CC[C@]2(C)C(=O)N(N)C(=O)CC12 (stereo partly specified) has what recorded GI50?
> 100 µM (inactive)

---

- Tested on: NCI-H226
- Assay: NCI tumour cell line growth inhibition, 48 h
Activity calls are given as the source filed them. Cut-off read from the data, not from the text of the source: active = GI50 up to about 1.1 µM and inactive = higher.
Would you mind telling me the reported GI50 of each entry?

So what GI50 did COC(=O)c1ccc(/C=N/c2ccc(S(N)(=O)=O)cc2)cc1 get with NCI-H226?
> 100 µM (inactive)

So what GI50 did Cn1c2c(c3c(=O)[nH]ncc31)CCc1ccccc1-2 get with NCI-H226?
29.4 µM (inactive)

So what GI50 did CC1CN1P1(N2CC2C)=NP(N2CC2C)(N2CC2C)=NP(N2CC2C)(N2CC2C)=N1 (centres undefined) get with NCI-H226?
> 50 µM (inactive)

So what GI50 did Cc1cn(C2CC(O)C(CO[Si](C)(C)C(C)(C)C)OC2OC(C)C)c(=O)[nH]c1=O (centres undefined) get with NCI-H226?
41.9 µM (inactive)

So what GI50 did O=C(O)c1cccc(F)c1C(=O)c1ccc2ccccc2c1 get with NCI-H226?
> 100 µM (inactive)

So what GI50 did O=C(C#Cc1ccccc1)Nc1ccccc1CC(c1c[nH]c2ccccc12)c1c[nH]c2ccccc12 get with NCI-H226?
16.6 µM (inactive)

So what GI50 did CC(=O)Nc1ccc(C(=O)NN2C(=O)C(Cl)C2c2ccc([N+](=O)[O-])cc2)cc1 (centres undefined) get with NCI-H226?
> 100 µM (inactive)

So what GI50 did Cc1ccc(C)c(NC(=O)/C(=N\N)C(c2cnc3ccc([N+](=O)[O-])cc3n2)[N+](=O)[O-])c1 (centres undefined) get with NCI-H226?
> 100 µM (inactive)

So what GI50 did SC1=NC2=C(CSC/C2=C\c2cccc(Br)c2)C(c2cccc(Br)c2)N1 (centres undefined) get with NCI-H226?
> 100 µM (inactive)

So what GI50 did O=S1(=O)CS(=O)(=O)OCCCCCO1 get with NCI-H226?
> 100 µM (inactive)

So what GI50 did COc1cc2c3c(c1OCc1ccccc1)NCCC3NCC2 (centres undefined) get with NCI-H226?
> 100 µM (inactive)

So what GI50 did O=C(NC1(c2cc3ccccc3s2)CCCCC1)C1CCC1 get with NCI-H226?
> 100 µM (inactive)

So what GI50 did CCOC(=O)C(=O)/C(=C/NC(=S)Nc1ccc(Cl)c(Cl)c1)C(=O)OCC get with NCI-H226?
56 µM (inactive)

So what GI50 did COc1cc(/C=C2\CC3C4CC[C@H]5C[C@@H](O)CC[C@]5(C)C4CC[C@]3(C)\C2=N\O)cc(OC)c1OC (some centres undefined) get with NCI-H226?
10.8 µM (inactive)

So what GI50 did CC(C)C(/C=C/c1ccc(Cl)cc1)=N\NC(=O)N/N=C(/C=C/c1ccc(Cl)cc1)C(C)C get with NCI-H226?
30.8 µM (inactive)

So what GI50 did Cc1c(C(=O)c2ccccc2C(=O)O)c2ccccc2n1C get with NCI-H226?
> 100 µM (inactive)

So what GI50 did CCOC(=O)NC(=O)c1cn(CCN2CCNCC2)c(=O)[nH]c1=O get with NCI-H226?
> 100 µM (inactive)

So what GI50 did Cc1nc2c(Cl)cc(Cl)cc2c2c1CCO2 get with NCI-H226?
> 100 µM (inactive)

So what GI50 did CCOC(=O)[C@H]1Nc2ccc(Cl)cc2[C@H]2CCC[C@@H]12 get with NCI-H226?
> 100 µM (inactive)

So what GI50 did CCOP(=O)(Cc1nc(C#N)c(N)o1)OCC get with NCI-H226?
> 100 µM (inactive)

So what GI50 did COc1cc2c3c(c1OC)C(=O)C=C3N(S(=O)(=O)c1ccc(C)cc1)CC2 get with NCI-H226?
> 100 µM (inactive)

So what GI50 did COC(=O)Nc1nc2cc(C(=O)c3ccc[nH]3)ccc2[nH]1 get with NCI-H226?
1.16 µM (inactive)

So what GI50 did CC/C=C/C(CC)C/C(C)=C\[C@]1(CC)C[C@H](CC)[C@H](CC(=O)O)OO1 (some centres undefined) get with NCI-H226?
1.89 µM (inactive)

So what GI50 did COc1ccc2ccc3oc(=O)c(C)cc3c2c1 get with NCI-H226?
> 100 µM (inactive)

So what GI50 did NC(CCC(=O)NC(CSC(=O)N(O)c1ccccc1)C(=O)NCC(=O)O)C(=O)O (centres undefined) get with NCI-H226?
> 1000 µM (inactive)

So what GI50 did COc1ccc(-c2cc(-c3cc(C)cc(Br)c3O)no2)cc1 get with NCI-H226?
5.18 µM (inactive)

So what GI50 did Cc1cn(CCCCOC(=O)NC(CCCNC(N)=O)C(=O)O)c(=O)[nH]c1=O (centres undefined) get with NCI-H226?
> 100 µM (inactive)

So what GI50 did O=C1CN(C(=O)C2CCCN2C(=O)C2CCCN2)C(=O)CN1 (centres undefined) get with NCI-H226?
> 100 µM (inactive)

So what GI50 did CCSC1=CC(=O)c2nc3ccccc3c3ccnc1c23 get with NCI-H226?
10.6 µM (inactive)

So what GI50 did Cc1nc2c(cc1C(=O)N/N=C/c1ccc([N+](=O)[O-])cc1)c(=O)n(C)c(=O)n2C get with NCI-H226?
80.2 µM (inactive)

So what GI50 did Cn1c2ccccc2c(=NNc2ccc(C(=O)O)cc2)c2ccccc21 get with NCI-H226?
17.7 µM (inactive)

So what GI50 did CCN(CC)CCNc1nc(N)c(C#N)c(C#N)c1C#N get with NCI-H226?
> 10 µM (inactive)

So what GI50 did [O-][S+]1c2ccccc2N=C(c2ccc3ccccc3c2)CC1c1ccccc1 (centres undefined) get with NCI-H226?
23.3 µM (inactive)

So what GI50 did COC(=O)CNC(=O)CNC(=O)CSc1nnc(COc2ccc(Cl)cc2)n1-c1ccccc1 get with NCI-H226?
> 100 µM (inactive)

So what GI50 did FC(F)(F)c1ccc2nc(NCc3ccccc3)c(-c3ccccc3)nc2c1 get with NCI-H226?
37.8 µM (inactive)

So what GI50 did CCN(CC)CCOCC1CCCN2CCCCC12 (centres undefined) get with NCI-H226?
> 100 µM (inactive)

So what GI50 did CC(=O)OC1CCN(C(=O)c2ccccc2)CC1CC1(c2cc3ccccc3[nH]2)OCCO1 (centres undefined) get with NCI-H226?
> 100 µM (inactive)

So what GI50 did O=C(CSCC(=O)N/N=C\c1ccc(F)cc1F)N/N=C\c1ccc(F)cc1F get with NCI-H226?
> 100 µM (inactive)

So what GI50 did O=S1(=O)C[C@@H](NCc2ccccc2)[C@H](NCc2ccccc2)C1 get with NCI-H226?
> 100 µM (inactive)
